src = patent US8846698B2

Listed here are compounds together with their documented Papp A→B.
target: BCRP (ABCG2) (Homo sapiens (Human), UniProt Q9UNQ0); assay: MDCK-BCRP efflux assay (in vitro brain penetration); assay type: in vitro ADME; conditions: dog, A to B, read-out: RRCK BCRP Papp AB
Sequence (Q9UNQ0 whole entry): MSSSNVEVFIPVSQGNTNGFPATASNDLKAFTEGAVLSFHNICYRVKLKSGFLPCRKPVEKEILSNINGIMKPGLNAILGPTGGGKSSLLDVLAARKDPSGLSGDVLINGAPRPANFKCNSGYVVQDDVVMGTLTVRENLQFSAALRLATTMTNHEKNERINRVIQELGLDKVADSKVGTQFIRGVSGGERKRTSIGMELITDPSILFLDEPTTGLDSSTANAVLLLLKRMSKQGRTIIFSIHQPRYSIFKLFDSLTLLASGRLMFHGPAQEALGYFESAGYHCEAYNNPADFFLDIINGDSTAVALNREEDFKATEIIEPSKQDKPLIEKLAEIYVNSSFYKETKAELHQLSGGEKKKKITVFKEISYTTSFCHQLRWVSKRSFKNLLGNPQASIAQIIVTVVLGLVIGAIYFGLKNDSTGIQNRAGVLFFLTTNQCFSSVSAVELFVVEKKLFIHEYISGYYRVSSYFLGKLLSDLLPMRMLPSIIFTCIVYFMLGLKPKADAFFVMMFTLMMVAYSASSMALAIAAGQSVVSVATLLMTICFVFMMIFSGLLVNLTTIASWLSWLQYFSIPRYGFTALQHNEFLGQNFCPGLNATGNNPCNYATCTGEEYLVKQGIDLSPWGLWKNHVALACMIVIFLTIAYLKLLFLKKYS
Dear colleague, please send the value followed by its unit.

Some compounds with recorded Papp A→B:
Prompt: Given the entry CC(C)(CO)n1cc(C(=O)c2cncc(NC(=O)Cc3ccc(Cl)cn3)c2)c2cnc(N)nc21 [Example 46] , report its measured Papp A→B.
Response: 7 ×10⁻⁶ cm/s

Prompt: Given C[C@@H](CO)n1cc(C(=O)c2cncc(NC(=O)Cc3ccc(C(F)(F)F)cc3)c2)c2cncnc21 [Example 9] , state its recorded Papp A→B.
Response: 9 ×10⁻⁶ cm/s

Prompt: For Cc1cc(C(F)(F)F)nn1CC(=O)Nc1cncc(C(=O)c2cn(C(C)(C)CO)c3ncncc23)c1 [Example 26] , what is its reported Papp A→B?
Response: 7.5 ×10⁻⁶ cm/s

With those in mind, consider the next compound.
Prompt: # query: Papp A→B of entry CC(C)(C)n1cc(C(=O)c2cncc(NC(=O)Cn3cc(C4CC4)nn3)c2)c2cncnc21 [Example 4]
Response: 12 ×10⁻⁶ cm/s
